System: Pseudomonas aeruginosa (ATCC 27883)
Conditions: ATCC 27883
Non-standard residues stand in square brackets, D forms with d. Residues, ends and D or L forms follow the SMILES beside them. Dip = N[C@H](C(=O)O)C(c1ccccc1)c1ccccc1; 2Nal = N[C@@H](Cc1ccc2ccccc2c1)C(=O)O
The following compounds are shown together with reported MIC P. aeruginosa ATCC 27883 values.
measuredProperty: MIC P. aeruginosa ATCC 27883

compound: N=C(N)NCCC[C@H](NC(=O)[C@H](CCCNC(=N)N)NC(=O)[C@H](CCCNC(=N)N)NC(=O)[C@@H](N)CCCNC(=N)N)C(=O)N[C@@H](Cc1ccc2ccccc2c1)C(=O)N[C@@H](Cc1ccc2ccccc2c1)C(=O)N[C@@H](Cc1ccc2ccccc2c1)C(=O)N[C@@H](Cc1ccc2ccccc2c1)C(=O)O [IFX-006-1, NH2-Arg-Arg-Arg-Arg-NaI-NaI-NaI-NaI-OH] (H-RRRR[2Nal][2Nal][2Nal][2Nal]-OH)
observedMeasurement: >100 µg/mL
--
compound: N=C(N)NCCC[C@H](NC(=O)[C@H](CCCNC(=N)N)NC(=O)[C@H](Cc1ccc2ccccc2c1)NC(=O)[C@H](Cc1ccc2ccccc2c1)NC(=O)[C@H](CCCNC(=N)N)NC(=O)[C@@H](N)CCCNC(=N)N)C(=O)N[C@@H](Cc1ccc2ccccc2c1)C(=O)O [IFX-019-1, NH2-Arg-Arg-NaI-NaI-Arg-Arg-NaI-OH] (H-RR[2Nal][2Nal]RR[2Nal]-OH)
observedMeasurement: 25 µg/mL
--
compound: N=C(N)NCCC[C@@H](N)C(=O)N[C@H](CCCNC(=N)N)C(=O)N[C@H](CCCNC(=N)N)C(=O)N[C@H](CCCNC(=N)N)C(=O)N[C@@H](Cc1c[nH]c2ccccc12)C(=O)N[C@@H](Cc1ccc2ccccc2c1)C(=O)N[C@@H](Cc1ccc2ccccc2c1)C(=O)O [IFX-113-1] (H-[dR][dR][dR][dR]W[2Nal][2Nal]-OH)
observedMeasurement: 12.5 µg/mL
--
compound: N=C(N)NCCC[C@H](NC(=O)[C@H](CCCNC(=N)N)NC(=O)[C@@H](N)CCCNC(=N)N)C(=O)N[C@@H](Cc1ccc2ccccc2c1)C(=O)N[C@@H](Cc1ccc2ccccc2c1)C(=O)N[C@@H](Cc1ccc2ccccc2c1)C(=O)O [IFX-003-1, NH2-Arg-Arg-Arg-NaI -NaI-NaI-OH] (H-RRR[2Nal][2Nal][2Nal]-OH)
observedMeasurement: 25 µg/mL
--
compound: N=C(N)NCCC[C@H](NC(=O)[C@H](CCCNC(=N)N)NC(=O)[C@@H](N)CCCNC(=N)N)C(=O)N[C@H](C(=O)N[C@@H](Cc1c[nH]c2ccccc12)C(=O)N[C@H](C(=O)O)C(c1ccccc1)c1ccccc1)C(c1ccccc1)c1ccccc1 [IFX-021-1, NH2-R-R-R-Dip-Trp-Dip-OH] (H-RRR[Dip]W[Dip]-OH)
observedMeasurement: 50 µg/mL
--
compound: N=C(N)NCCC[C@H]1NC(=O)[C@H](C(c2ccccc2)c2ccccc2)NC(=O)[C@H](C(c2ccccc2)c2ccccc2)NC(=O)[C@H](C(c2ccccc2)c2ccccc2)NC(=O)[C@@H](CCCNC(=N)N)NC(=O)[C@@H](CCCNC(=N)N)NC(=O)[C@@H](CCCNC(=N)N)NC1=O [IFX-073, c[arg-arg-arg-arg-Dip-Dip-Dip]] (cyclo([dR][dR][dR][dR][Dip][Dip][Dip]))
observedMeasurement: 6.2 µg/mL

====

System: human red blood cells
Design: unit not given beside the values
Non-standard residues stand in square brackets, D forms with d. Residues, ends and D or L forms follow the SMILES beside them. Dip = N[C@H](C(=O)O)C(c1ccccc1)c1ccccc1; 2Nal = N[C@@H](Cc1ccc2ccccc2c1)C(=O)O
The compounds listed here are annotated with their HC50.

compound: N=C(N)NCCC[C@H](NC(=O)[C@H](CCCNC(=N)N)NC(=O)[C@@H](N)CCCNC(=N)N)C(=O)N[C@@H](Cc1ccc2ccccc2c1)C(=O)N[C@@H](Cc1ccc2ccccc2c1)C(=O)N[C@@H](Cc1ccc2ccccc2c1)C(=O)O [IFX-003-1, NH2-Arg-Arg-Arg-NaI -NaI-NaI-OH] (H-RRR[2Nal][2Nal][2Nal]-OH)
system: human red blood cells
HC50: 310
--
compound: C[C@@H]1NC(=O)[C@H](C)NC(=O)[C@H](CCCNC(=N)N)NC(=O)[C@H](CCCNC(=N)N)NC(=O)[C@H](CCCNC(=N)N)NC(=O)[C@H](CCCNC(=N)N)NC(=O)[C@H](C)NC(=O)[C@H](C)NC(=O)[C@H](Cc2c[nH]c3ccccc23)NC(=O)[C@H](Cc2c[nH]c3ccccc23)NC(=O)[C@H](Cc2c[nH]c3ccccc23)NC(=O)[C@H](Cc2c[nH]c3ccccc23)NC1=O [IFX-045] (cyclo(AARRRRAAWWWW))
system: human red blood cells
HC50: 390
--
compound: N=C(N)NCCC[C@@H]1NC(=O)[C@H](CCCNC(=N)N)NC(=O)[C@H](CCCNC(=N)N)NC(=O)[C@H](C(c2ccccc2)c2ccccc2)NC(=O)[C@H](C(c2ccccc2)c2ccccc2)NC(=O)[C@H](C(c2ccccc2)c2ccccc2)NC(=O)[C@H](C(c2ccccc2)c2ccccc2)NC(=O)[C@H](CCCNC(=N)N)NC1=O [IFX-005, c[Arg-Arg-Arg-Arg-Dip-Dip-Dip-Dip]] (cyclo([Dip][Dip][Dip][Dip]RRRR))
system: human red blood cells
HC50: 95
--
compound: N=C(N)NCCC[C@@H]1NC(=O)[C@H](CCCNC(=N)N)NC(=O)[C@H](CCCNC(=N)N)NC(=O)[C@H](Cc2c[nH]c3ccccc23)NC(=O)[C@H](Cc2ccc3ccccc3c2)NC(=O)[C@H](Cc2ccc3ccccc3c2)NC(=O)[C@H](CCCNC(=N)N)NC1=O [IFX-031, c[Arg-Arg-Arg-Arg-NaI-NaI-Trp]] (cyclo(RRRR[2Nal][2Nal]W))
system: human red blood cells
HC50: 350
--
compound: N=C(N)NCCC[C@@H]1NC(=O)[C@H](CCCNC(=N)N)NC(=O)[C@H](Cc2c[nH]c3ccccc23)NC(=O)[C@H](C(c2ccccc2)c2ccccc2)NC(=O)[C@H](C(c2ccccc2)c2ccccc2)NC(=O)[C@H](CCCNC(=N)N)NC(=O)[C@H](CCCNC(=N)N)NC1=O [IFX-028, c[Arg-Arg-Arg-Arg-Dip-Dip-Trp]] (cyclo([Dip][Dip]WRRRR))
system: human red blood cells
HC50: 370

====

# key: entry, value: HC50 at 0.5 h
Assay: in vitro
Settings: human, fresh human red blood cells (washed), pH 7.4
Non-standard residues stand in square brackets, D forms with d. Residues, ends and D or L forms follow the SMILES beside them. 2Nal = N[C@@H](Cc1ccc2ccccc2c1)C(=O)O; d2Nal = N[C@H](Cc1ccc2ccccc2c1)C(=O)O

compound: N=C(N)NCCC[C@@H]1NC(=O)[C@@H](CCCNC(=N)N)NC(=O)[C@H](CCCNC(=N)N)NC(=O)[C@@H](Cc2ccc3ccccc3c2)NC(=O)[C@@H](Cc2ccc3ccccc3c2)NC(=O)[C@H](Cc2c[nH]c3ccccc23)NC(=O)[C@@H](CCCNC(=N)N)NC1=O [IFX-111, c[Arg-arg-Arg-arg-Trp-naI-naI]] (cyclo(R[dR]R[dR]W[d2Nal][d2Nal]))
HC50 at 0.5 h, µg/mL: 205
--
compound: N=C(N)NCCC[C@@H]1NC(=O)[C@H](CCCNC(=N)N)NC(=O)[C@@H](CCCNC(=N)N)NC(=O)[C@H](CCCNC(=N)N)NC(=O)[C@H](Cc2ccc3ccccc3c2)NC(=O)[C@H](Cc2ccc3ccccc3c2)NC(=O)[C@H](Cc2ccc3ccccc3c2)NC1=O [IFX-079, c[Arg-arg-Arg-Arg-NaI-NaI-NaI]] (cyclo(R[dR]RR[2Nal][2Nal][2Nal]))
HC50 at 0.5 h, µg/mL: 100
--
compound: N=C(N)NCCC[C@@H]1NC(=O)[C@H](CCCNC(=N)N)NC(=O)[C@@H](CCCNC(=N)N)NC(=O)[C@@H](CCCNC(=N)N)NC(=O)[C@H](Cc2ccc3ccccc3c2)NC(=O)[C@H](Cc2ccc3ccccc3c2)NC(=O)[C@@H](Cc2c[nH]c3ccccc23)NC1=O [IFX-121, c[arg-arg-Arg-Arg-trp-NaI-NaI]] (cyclo([dR][dR]RR[dW][2Nal][2Nal]))
HC50 at 0.5 h, µg/mL: 425

====

Tested on: Pseudomonas aeruginosa (ATCC 27883)
Details: ATCC 27883
Non-standard residues stand in square brackets, D forms with d. Residues, ends and D or L forms follow the SMILES beside them. Dip = N[C@H](C(=O)O)C(c1ccccc1)c1ccccc1; 2Nal = N[C@@H](Cc1ccc2ccccc2c1)C(=O)O; d2Nal = N[C@H](Cc1ccc2ccccc2c1)C(=O)O
MIC P. aeruginosa ATCC 27883 for assorted molecules

molecule: N=C(N)NCCC[C@H](NC(=O)[C@H](CCCNC(=N)N)NC(=O)[C@H](CCCNC(=N)N)NC(=O)[C@@H](N)CCCNC(=N)N)C(=O)N[C@@H](Cc1ccc2ccccc2c1)C(=O)N[C@@H](Cc1c[nH]c2ccccc12)C(=O)N[C@@H](Cc1ccc2ccccc2c1)C(=O)O [IFX-030-1, NH2-R-R-R-R-NaI-Trp-NaI-OH] (H-RRRR[2Nal]W[2Nal]-OH)
system: Pseudomonas aeruginosa (ATCC 27883)
operatorSymbol: =
MIC P. aeruginosa ATCC 27883, µg/mL: 25
//
molecule: N=C(N)NCCC[C@H](NC(=O)[C@H](CCCNC(=N)N)NC(=O)[C@@H](N)CCCNC(=N)N)C(=O)N[C@H](C(=O)N[C@H](C(=O)N[C@H](C(=O)O)C(c1ccccc1)c1ccccc1)C(c1ccccc1)c1ccccc1)C(c1ccccc1)c1ccccc1 [IFX-002-1, NH2-Arg-Arg-Arg-Dip-Dip-Dip-OH] (H-RRR[Dip][Dip][Dip]-OH)
system: Pseudomonas aeruginosa (ATCC 27883)
operatorSymbol: =
MIC P. aeruginosa ATCC 27883, µg/mL: 25
//
molecule: N=C(N)NCCC[C@@H](N)C(=O)N[C@H](CCCNC(=N)N)C(=O)N[C@H](CCCNC(=N)N)C(=O)N[C@H](CCCNC(=N)N)C(=O)N[C@@H](Cc1c[nH]c2ccccc12)C(=O)N[C@H](Cc1ccc2ccccc2c1)C(=O)N[C@H](Cc1ccc2ccccc2c1)C(=O)O [IFX-109-1] (H-[dR][dR][dR][dR]W[d2Nal][d2Nal]-OH)
system: Pseudomonas aeruginosa (ATCC 27883)
operatorSymbol: =
MIC P. aeruginosa ATCC 27883, µg/mL: 12.5
//
molecule: NCCCC[C@@H]1NC(=O)[C@H](CCCCN)NC(=O)[C@H](CCCCN)NC(=O)[C@H](C(c2ccccc2)c2ccccc2)NC(=O)[C@H](C(c2ccccc2)c2ccccc2)NC(=O)[C@H](C(c2ccccc2)c2ccccc2)NC(=O)[C@H](CCCCN)NC1=O [IFX-014, c[Lys-Lys-Lys-Lys-Dip-Dip-Dip]] (cyclo([Dip][Dip][Dip]KKKK))
system: Pseudomonas aeruginosa (ATCC 27883)
operatorSymbol: >
MIC P. aeruginosa ATCC 27883, µg/mL: 100
